percent of parent reference
B1: Myc-tagged mouse IL-17RA [mouse] / NF-κB activator 1 (Act1) [mouse (endogenous in MEFs)] (parent complex)
chain 1: SPRLLDFPAPVCAQEGLSCRVKNSTCLDDSWIHPKNLTPSSPKNIYINLSVSSTQHGELVPVLHVEWTLQTDASILYLEGAELSVLQLNTNERLCVKFQFLSMLQHHRKRWRFSFSHFVVDPGQEYEVTVHHLPKPIPDGDPNHKSKIIFVPDCEDSKMKMTTSCVSSGSLWDPNITVETLDTQHLRVDFTLWNESTPYQVLLESFSDSENHSCFDVVKQIFAPRQEEFHQRANVTFTLSKFHWCCHHHVQVQPFFSSCLNDCLRHAVTVPCPVISNTTVPKPVADYIPLWVYGLITLIAILLVGSVIVLIICMTWRLSGADQEKHGDDSKINGILPVADLTPPPLRPRKVWIVYSADHPLYVEVVLKFAQFLITACGTEVALDLLEEQVISEVGVMTWVSRQKQEMVESNSKIIILCSRGTQAKWKAILGWAEPAVQLRCDHWKPAGDLFTAAMNMILPDFKRPACFGTYVVCYFSGICSERDVPDLFNITSRYPLMDRFEEVYFRIQDLEMFEPGRMHHVRELTGDNYLQSPSGRQLKEAVLRFQEWQTQCPDWFERENLCLADGQDLPSLDEEVFEDPLLPPGGGIVKQQPLVRELPSDGCLVVDVCVSEEESRMAKLDPQLWPQRELVAHTLQSMVLPAEQVPAAHVVEPLHLPDGSGAAAQLPMTEDSEACPLLGVQRNSILCLPVDSDDLPLCSTPMMSPDHLQGDAREQLESLMLSVLQQSLSGQPLESWPRPEVVLEGCTPSEEEQRQSVQSDQGYISRSSPQPPEWLTEEEELELGEPVESLSPEELRSLRKLQRQLFFWELEKNPGWNSLEPRRPTPEEQNPS
chain 2: MNRSIPVEVDESEPFPSQLLKPIPEYSPEEELEPPAPNTRNMAPSSLSVLQCPPLKLANHQPVSQQVTCLRAKVLEEGEASFFRRHPELGKDISSCSSGASEPESELGALPPEHRFTLTEKRNRWLGSQLSAASPDTGHESDKSDPSLPNALADSFSGGQEMMPRPRPRPGPHRHRAAPDVPTIDTGYDSQPQDVLGIRQLERPLPLTSSCYLQDLPGPLRSRELPPQFELERYPMNAQLLPPHPSPQAPWNCQYYCPGGPYHHQVPHGHGYPPAAAYQQVLQPALPGQVLPGARARGPRPVQKVILNDSSPQDQEERPAQRDFSFPRLPRDQLYRPPSNGVEAPEESLDLPAELRPHGPQAPSLAAVPRPPSNPLARGTLRTSNLPEELRKVFITYSMDTAMEVVKFVNFLLVNGFQTAIDIFEDRIRGIDIIKWMERYLRDKTVMIIVAISPKYKQDVEGAESQLDEDEHGLHTKYIHRMMQIEFISQGSMNFRFIPVLFPNAKKEHVPTWLQNTHVYSWPKNKKNILLRLLREEEYVAPPRGPLPTLQVVPL

Variants of: B1
ASSAY_REMARKS: co-immunoprecipitation (anti-Myc IP, Western blot, ImageJ densitometry); IL-17RA-deficient MEFs reconstituted by retroviral infection; treated with IL-17 for 10 min; parent: 100
PARAMETER_MEASURED: percent of parent

chain 1 R420A, chain 1 Q423A, chain 1 K427A: 107
chain 1 E388A, chain 1 Q389A, chain 1 E393A: 107
chain 1 V396A, chain 1 M397A: 98
chain 1 I429A, chain 1 L430A: 102
